The compounds below have reported pKi for D(2) dopamine receptor (Homo sapiens, UniProt P14416).
For clarity, pKi is expressed as the negative log10 of concentration in mol/L.

Some entries whose results are on file:
1) CN(C)CC/C=C1/c2ccccc2COc2ccccc21 :: 6.44
2) CNCCC=C1c2ccccc2CCc2ccccc21 :: 5.59
3) COc1ccc(OC[C@H]2CN(C)CC[C@@H]2c2ccccc2)cc1 :: 6.23

Let's switch to this compound now.
Input line: Kindly state the measured pKi obtained for CN(C)CCC=C1c2ccccc2CCc2ccccc21 with D(2) dopamine receptor (Homo sapiens, UniProt P14416).
Sequence (P14416 whole entry): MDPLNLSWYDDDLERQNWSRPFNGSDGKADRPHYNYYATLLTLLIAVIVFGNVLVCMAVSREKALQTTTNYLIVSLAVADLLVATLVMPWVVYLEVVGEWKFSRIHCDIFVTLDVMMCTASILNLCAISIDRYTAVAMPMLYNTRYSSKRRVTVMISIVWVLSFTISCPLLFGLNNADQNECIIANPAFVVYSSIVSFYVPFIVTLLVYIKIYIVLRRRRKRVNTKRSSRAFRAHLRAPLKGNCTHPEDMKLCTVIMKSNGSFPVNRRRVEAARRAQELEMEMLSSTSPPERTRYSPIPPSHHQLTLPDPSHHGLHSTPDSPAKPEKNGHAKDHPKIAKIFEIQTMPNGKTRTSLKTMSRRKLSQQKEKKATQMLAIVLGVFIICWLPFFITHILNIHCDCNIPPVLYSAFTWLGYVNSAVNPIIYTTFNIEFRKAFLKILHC
Output line: 5.84

---

Below are pKi values measured for UniProt:P08913.
Sequence (P08913 whole entry): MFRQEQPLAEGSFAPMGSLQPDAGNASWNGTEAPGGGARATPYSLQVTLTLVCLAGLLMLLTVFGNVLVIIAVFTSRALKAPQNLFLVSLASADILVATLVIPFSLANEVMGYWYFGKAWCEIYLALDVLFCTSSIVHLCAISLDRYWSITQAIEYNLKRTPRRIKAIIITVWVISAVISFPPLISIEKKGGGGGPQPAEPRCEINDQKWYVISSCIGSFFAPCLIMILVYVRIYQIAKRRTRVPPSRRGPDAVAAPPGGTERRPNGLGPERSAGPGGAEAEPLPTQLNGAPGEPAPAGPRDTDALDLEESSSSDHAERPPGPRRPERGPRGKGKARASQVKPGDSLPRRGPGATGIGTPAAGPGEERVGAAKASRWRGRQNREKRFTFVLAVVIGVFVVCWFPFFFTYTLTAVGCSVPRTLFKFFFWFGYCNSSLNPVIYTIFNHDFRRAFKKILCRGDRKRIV
Answer as the number alone; pKi is minus log10 of concentration in mol/L.

1. CN(C)CCC=C1c2ccccc2CCc2ccccc21 :: 6.16
2. N[C@H]1CC[C@@H](c2ccc(Cl)c(Cl)c2)c2ccccc21 :: 5.11

Consider the record given below.
Input line: What pKi appears in the records for this compound with UniProt:P08913? CCc1nn(CCCN2CCN(c3cccc(Cl)c3)CC2)c(=O)n1CC [NSC_40589]
Output line: 6.24
